B1: STK38L (parent)
chain: FCIDSENRIGNSGVEEIKGHPFFE

# Variants of: B1
# Assay Details: protein stability index of a GFP-peptide fusion (GPS, HEK-293T) (PSI 1-6); higher = more stable;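 note: lentivirally expressed fusions sorted by FACS into six bins by GFP to DsRed ratio, PSI derived from sequencing read proportions per bin multiplied by bin number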
# Assay Conditions: c terminus: a fixed tail appended
Reported Endpoint: protein stability index
Lab note: write the figure by itself, no unit.

Request: Read off the recorded protein stability index for GCIDSENRIGNSGVEEIKGHPFFE [F1G]
Response: 4.26

Request: Read off the recorded protein stability index for FCIDSEKRIGNSGVEEIKGHPFFE [N7K]
Response: 2.25

Request: Read off the recorded protein stability index for FCIDSENRIGNSGVEEMKGHPFFE [I17M]
Response: 2.79

Request: Read off the recorded protein stability index for NCIDSENRIGNSGVEEIKGHPFFE [F1N]
Response: 4.4

Request: Read off the recorded protein stability index for FCIDSENRIGNSGVEEIKGHNFFE [P21N]
Response: 3.13

Request: Read off the recorded protein stability index for FCIDSEIRIGNSGVEEIKGHPFFE [N7I]
Response: 1.58

Request: Read off the recorded protein stability index for FYIDSENRIGNSGVEEIKGHPFFE [C2Y]
Response: 2.61

Request: Read off the recorded protein stability index for FCIDSENRIGNAGVEEIKGHPFFE [S12A]
Response: 1.98

Request: Read off the recorded protein stability index for FCIDSENRIGNSGVGEIKGHPFFE [E15G]
Response: 2.08

Request: Read off the recorded protein stability index for FCIDSENRIGNPGVEEIKGHPFFE [S12P]
Response: 2.32

Request: Read off the recorded protein stability index for FCIDSENRIGNSGVEEIKGHPAFE [F22A]
Response: 3.58

Request: Read off the recorded protein stability index for FCIDSENRIGNSGVEEIKGHLFFE [P21L]
Response: 1.42

Request: Read off the recorded protein stability index for FCIDSENRIGESGVEEIKGHPFFE [N11E]
Response: 3.11

Request: Read off the recorded protein stability index for FCIDEENRIGNSGVEEIKGHPFFE [S5E]
Response: 3.39

Request: Read off the recorded protein stability index for FCFDSENRIGNSGVEEIKGHPFFE [I3F]
Response: 2.23

Request: Read off the recorded protein stability index for FCIDSENRIGNSGVEEIKGHPFFW [E24W]
Response: 1.61

Request: Read off the recorded protein stability index for FCIDSEGRIGNSGVEEIKGHPFFE [N7G]
Response: 2.26

Request: Read off the recorded protein stability index for FCIDSENRIANSGVEEIKGHPFFE [G10A]
Response: 2.27

Request: Read off the recorded protein stability index for FCIDSENRIGNSGVEEIKGHPYFE [F22Y]
Response: 2.42

Request: Read off the recorded protein stability index for FCIDSENRIGNSGVEEIKLHPFFE [G19L]
Response: 1.87

Request: Read off the recorded protein stability index for FCIDSENRIGNSGVEEIKGHPLFE [F22L]
Response: 3.74

Request: Read off the recorded protein stability index for FCIDSENRIGNSGVSEIKGHPFFE [E15S]
Response: 1.96

Request: Read off the recorded protein stability index for FCIDSENRIGKSGVEEIKGHPFFE [N11K]
Response: 2.03

Request: Read off the recorded protein stability index for FCIDSENRIGNFGVEEIKGHPFFE [S12F]
Response: 1.84

Request: Read off the recorded protein stability index for FCIDSENHIGNSGVEEIKGHPFFE [R8H]
Response: 2.72

Request: Read off the recorded protein stability index for FCIDSENRIGNSKVEEIKGHPFFE [G13K]
Response: 2.44

Request: Read off the recorded protein stability index for FCIDSLNRIGNSGVEEIKGHPFFE [E6L]
Response: 2.21

Request: Read off the recorded protein stability index for FCIDSESRIGNSGVEEIKGHPFFE [N7S]
Response: 2.09

Request: Read off the recorded protein stability index for FCIDSENRIGNSGVEEIKGHQFFE [P21Q]
Response: 2.99

Request: Read off the recorded protein stability index for FCIDSENRIGNSGVEEIKGHWFFE [P21W]
Response: 1.9

Request: Read off the recorded protein stability index for FCIDSENRIGNSGVEEIKGHPFPE [F23P]
Response: 4.07

Request: Read off the recorded protein stability index for FCIDSENRVGNSGVEEIKGHPFFE [I9V]
Response: 2.73

Request: Read off the recorded protein stability index for FCIDSENRIGNSGVEEIKSHPFFE [G19S]
Response: 2.43

Request: Read off the recorded protein stability index for FCIDSENRIGNSGREEIKGHPFFE [V14R]
Response: 2.32

Request: Read off the recorded protein stability index for FCIDSENRIGNSGQEEIKGHPFFE [V14Q]
Response: 2.74

Request: Read off the recorded protein stability index for FCIDSENRIGNSGPEEIKGHPFFE [V14P]
Response: 2.46

Request: Read off the recorded protein stability index for FCIDSENRIGNSHVEEIKGHPFFE [G13H]
Response: 2.56

Request: Read off the recorded protein stability index for FCIDSENRIGNSGVEEIKGRPFFE [H20R]
Response: 2.35

Request: Read off the recorded protein stability index for FCIDSENRIGNSGVEEIKIHPFFE [G19I]
Response: 1.54

Request: Read off the recorded protein stability index for FCIDSENRIGVSGVEEIKGHPFFE [N11V]
Response: 2

Request: Read off the recorded protein stability index for FCIDSENRIGNSGVEVIKGHPFFE [E16V]
Response: 1.87

Request: Read off the recorded protein stability index for FCIQSENRIGNSGVEEIKGHPFFE [D4Q]
Response: 2.78

Request: Read off the recorded protein stability index for FCIDSVNRIGNSGVEEIKGHPFFE [E6V]
Response: 1.8

Request: Read off the recorded protein stability index for FCIDSENVIGNSGVEEIKGHPFFE [R8V]
Response: 2.02

Request: Read off the recorded protein stability index for FCIDSENRIGNRGVEEIKGHPFFE [S12R]
Response: 2.35

Request: Read off the recorded protein stability index for FCIDSENRIGMSGVEEIKGHPFFE [N11M]
Response: 1.83
